Ref: paper PMC8963254

Test system: E. faecalis ATCC 29212
Assay type: cell-based, Enterococcus faecalis
Details: ATCC 29212, 18 h
Non-standard residues stand in square brackets, D forms with d. Residues, ends and D or L forms follow the SMILES beside them. *: point of attachment. Lys(Me2) = CN(C)CCCC[C@H](N)C(=O)O; Lys(Me) = CNCCCC[C@H](N)C(=O)O; Octanoyl = CCCCCCCC(=O)*
Quick list: MIC per entry.
Measured Attribute: MIC (µg/mL)

[
  {
    "Compound": "CCCCCCCC(=O)N[C@@H](CCCCNC)C(=O)NCCCN(CCCNC(=O)[C@H](CCCCNC)NC(=O)CCCCCCC)CC(=O)N[C@@H](CCCCNC)C(N)=O",
    "Measurement Target": "E. faecalis ATCC 29212",
    "Reading Qualifier": ">",
    "Observed Measurement": 128
  },
  {
    "Compound": "CCCCCCCC(=O)N[C@@H](CCCCN)C(=O)NCCCN(CCCNC(=O)[C@H](CCCCN)NC(=O)CCCCCCC)CC(=O)N[C@@H](CCCCN)C(N)=O",
    "Measurement Target": "E. faecalis ATCC 29212",
    "Reading Qualifier": "=",
    "Observed Measurement": 128
  },
  {
    "Compound": "CCCCCCCC(=O)NCCCC[C@H](NC(=O)CCCCCCC)C(=O)N[C@@H](CCCCN(C)C)C(=O)N[C@@H](CCCCN(C)C)C(=O)N[C@@H](CCCCN(C)C)C(=O)N[C@@H](CCCCN(C)C)C(N)=O [UTBLP 7] (Octanoyl-K(Octanoyl)[Lys(Me2)][Lys(Me2)][Lys(Me2)][Lys(Me2)]-NH2)",
    "Measurement Target": "E. faecalis ATCC 29212",
    "Reading Qualifier": "=",
    "Observed Measurement": 64
  },
  {
    "Compound": "CCCCCCCC(=O)N[C@@H](CCCCN(C)C)C(=O)NCCCN(CCCNC(=O)[C@H](CCCCN(C)C)NC(=O)CCCCCCC)CC(=O)N[C@@H](CCCCN(C)C)C(N)=O",
    "Measurement Target": "E. faecalis ATCC 29212",
    "Reading Qualifier": ">",
    "Observed Measurement": 128
  },
  {
    "Compound": "CCCCCCCC(=O)NCCCC[C@H](NC(=O)CCCCCCC)C(=O)N[C@@H](CCCCNC)C(=O)N[C@@H](CCCCNC)C(=O)N[C@@H](CCCCNC)C(=O)N[C@@H](CCCCNC)C(N)=O [UTBLP 6] (Octanoyl-K(Octanoyl)[Lys(Me)][Lys(Me)][Lys(Me)][Lys(Me)]-NH2)",
    "Measurement Target": "E. faecalis ATCC 29212",
    "Reading Qualifier": "=",
    "Observed Measurement": 32
  }
]

* * *

Test system: E. coli ATCC 25922
Format: cell-based, Escherichia coli
Conditions: UTBLP alone, plate with niclosamide
Non-standard residues stand in square brackets, D forms with d. Residues, ends and D or L forms follow the SMILES beside them. *: point of attachment. Lys(Me2) = CN(C)CCCC[C@H](N)C(=O)O; Octanoyl = CCCCCCCC(=O)*
Measured Attribute: MICUTBLP (µg/mL)

[
  {
    "Compound": "CCCCCCCC(=O)N[C@@H](CCCCN)C(=O)NCCCN(CCCNC(=O)[C@H](CCCCN)NC(=O)CCCCCCC)CC(=O)N[C@@H](CCCCN)C(N)=O [UTBLP 1]",
    "Reading Qualifier": ">",
    "Observed Measurement": 128
  },
  {
    "Compound": "CCCCCCCC(=O)N[C@@H](CCCCN(C)C)C(=O)NCCCN(CCCNC(=O)[C@H](CCCCN(C)C)NC(=O)CCCCCCC)CC(=O)N[C@@H](CCCCN(C)C)C(N)=O [UTBLP 3]",
    "Reading Qualifier": ">",
    "Observed Measurement": 128
  },
  {
    "Compound": "CCCCCCCC(=O)NCCCC[C@H](NC(=O)CCCCCCC)C(=O)N[C@@H](CCCCN(C)C)C(=O)N[C@@H](CCCCN(C)C)C(=O)N[C@@H](CCCCN(C)C)C(=O)N[C@@H](CCCCN(C)C)C(N)=O [UTBLP 7] (Octanoyl-K(Octanoyl)[Lys(Me2)][Lys(Me2)][Lys(Me2)][Lys(Me2)]-NH2)",
    "Reading Qualifier": "=",
    "Observed Measurement": 64
  },
  {
    "Compound": "CCCCCCCC(=O)NCCCC[C@H](NC(=O)CCCCCCC)C(=O)N[C@@H](CCCCN)C(=O)N[C@@H](CCCCN)C(=O)N[C@@H](CCCCN)C(=O)N[C@@H](CCCCN)C(N)=O [UTBLP 5] (Octanoyl-K(Octanoyl)KKKK-NH2)",
    "Reading Qualifier": "=",
    "Observed Measurement": 64
  }
]
